- Test system: six V600E BRAF melanoma cell lines
- EXPERIMENT_DESCRIPTION: Screening of recombinant RTK ligands for ability to confer resistance to BRAFi (PLX4720) or MEKi (PD184352) (Table 4)
- Type: cell-based, human
- Design: scale not given here
- EXPERIMENTAL_SETUP: A2058, PLX4720 - 2 uM, ligand 6.25 ng/ml
Quick list: ability of recombinant RTK ligand to confer resistance per entry.
READOUT_KIND: ability of recombinant RTK ligand to confer resistance

INSERT INTO results (molecule, observed_value) VALUES
  ('Ephrin-A4 (protein, UniProt P52798 26-170, looked up) Ephrin-A4: LRHVVYWNSSNPRLLRGDAVVELGLNDYLDIVCPHYEGPGPPEGPETFALYMVDWPGYESCQAEGPRAYKRWVCSLPFGHVQFSEKIQRFTPFSLGFEFLPGETYYYISVPTPESSGQCLRLQVSVCCKERKSESAHPVGSPGES', 0.99),
  ('GDNF (protein, UniProt P39905 78-211, looked up) Glial cell line-derived …: SPDKQMAVLPRRERNRQAAAANPENSRGKGRRGQRGKNRGCVLTAIHLNVTDLGLGYETKEELIFRYCSGSCDAAETTYDKILKNLSRNRRLVSDKVGQACCRPIAFDDDLSFLDDNLVYHILRKHSAKRCGCI', 0.98),
  ('BDNF (protein, UniProt P23560 19-247, looked up) Neurotrophic factor BDNF …: APMKEANIRGQGGLAYPGVRTHGTLESVNGPKAGSRGLTSLADTFEHVIEELLDEDQKVRPNEENNKDADLYTSRVMLSSQVPLEPPLLFLLEEYKNYLDAANMSMRVRRHSDPARRGELSVCDSISEWVTAADKKTAVDMSGGTVTVLEKVPVSKGQLKQYFYETKCNPMGYTKEGCRGIDKRHWNSQCRTTQSYVRALTMDSKKRIGWRFIRIDTSCVCTLTIKRGR', 0.95),
  ('VEGF-C (protein, UniProt P49767 112-227, looked up) Vascular endothelial growth …: AHYNTEILKSIDNEWRKTQCMPREVCIDVGKEFGVATNTFFKPPCVSVYRCGGCCNSEGLQCMNTSTSYLSKTLFEITVPLSQGPKPVTISFANHTSCRCMSKLDVYRQVHSIIRR', 1.04),
  ('flt-3 ligand (FL) (protein, UniProt P49771 27-235, looked up) Fms-related tyrosine kinase 3 …: TQDCSFQHSPISSDFAVKIRELSDYLLQDYPVTVASNLQDEELCGGLWRLVLAQRWMERLKTVAGSKMQGLLERVNTEIHFVTKCAFQPPPSCLRFVQTNISRLLQETSEQLVALKPWITRQNFSRCLELQCQPDSSTLPPPWSPRPLEATAPTAPQPPLLLLLLLPVGLLLLAAAWCLHWQRTRRRTPRPGEQVPPVPSPQDLLLVEH', 1.01);
